Target: T1, human FcγRIIB (human, UniProt P31994 46-217)
T1 construct: Bought protein, construct not described
T1 sequence (looked up): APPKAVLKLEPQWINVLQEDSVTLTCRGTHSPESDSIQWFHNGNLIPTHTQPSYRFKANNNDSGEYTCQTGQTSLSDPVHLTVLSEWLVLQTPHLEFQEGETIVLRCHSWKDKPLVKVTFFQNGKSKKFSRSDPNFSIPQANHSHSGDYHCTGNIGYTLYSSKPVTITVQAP
Test: ELISA, receptor coated on plate
property-name: binding result

Input line: Value lookup for binding result; key = D221N mutant of hexa-Fc (Fc fusion, N-linked glycans at Asn221 (N1), Asn297 (N77) and Asn563 (N236), Made on the hexa-Fc template in CHO-K1 cells; multimeric, hyper-sialylated) NKTHTCPPCPAPELLGGPSVFLFPPKPKDTLMISRTPEVTCVVVDVSHEDPEVKFNWYVDGVEVHNAKTKPREEQYNSTYRVVSVLTVCLQDWLNGKEYKCKVSNKALPAPIEKTISKAKGQPREPQVYTLPPSREEMTKNQVSLTCLVKGFYPSDIAVEWESNGQPENNYKTTPPVLDSDGSFFLYSKLTVDKSRWQQGNVFSCSVMHEALHNHYTQKSLSLSPGKLVLGPPLYNVSLVMSDTAGTCY
Output line: no binding

Input line: Consider next the binder N297A mutant of hexa-Fc (Fc fusion, N-linked glycan at Asn563 (N236), Made on the hexa-Fc template in CHO-K1 cells; still multimeric (pentamers and hexamers)) DKTHTCPPCPAPELLGGPSVFLFPPKPKDTLMISRTPEVTCVVVDVSHEDPEVKFNWYVDGVEVHNAKTKPREEQYASTYRVVSVLTVCLQDWLNGKEYKCKVSNKALPAPIEKTISKAKGQPREPQVYTLPPSREEMTKNQVSLTCLVKGFYPSDIAVEWESNGQPENNYKTTPPVLDSDGSFFLYSKLTVDKSRWQQGNVFSCSVMHEALHNHYTQKSLSLSPGKLVLGPPLYNVSLVMSDTAGTCY in the same way.
Output line: no binding

Input line: Repeat for the following binder: D221N/N563A mutant of hexa-Fc (Fc fusion, N-linked glycans at Asn221 (N1) and Asn297 (N77), Made on the hexa-Fc template in CHO-K1 cells; runs as higher order multimers approximating dodecamers; also called D221/N563A; D221N/N563A dodecamer) NKTHTCPPCPAPELLGGPSVFLFPPKPKDTLMISRTPEVTCVVVDVSHEDPEVKFNWYVDGVEVHNAKTKPREEQYNSTYRVVSVLTVCLQDWLNGKEYKCKVSNKALPAPIEKTISKAKGQPREPQVYTLPPSREEMTKNQVSLTCLVKGFYPSDIAVEWESNGQPENNYKTTPPVLDSDGSFFLYSKLTVDKSRWQQGNVFSCSVMHEALHNHYTQKSLSLSPGKLVLGPPLYAVSLVMSDTAGTCY
Output line: binds

Input line: One more binder: D221N/N297A mutant of hexa-Fc (Fc fusion, N-linked glycans at Asn221 (N1) and Asn563 (N236), Made on the hexa-Fc template in CHO-K1 cells; multimeric) NKTHTCPPCPAPELLGGPSVFLFPPKPKDTLMISRTPEVTCVVVDVSHEDPEVKFNWYVDGVEVHNAKTKPREEQYASTYRVVSVLTVCLQDWLNGKEYKCKVSNKALPAPIEKTISKAKGQPREPQVYTLPPSREEMTKNQVSLTCLVKGFYPSDIAVEWESNGQPENNYKTTPPVLDSDGSFFLYSKLTVDKSRWQQGNVFSCSVMHEALHNHYTQKSLSLSPGKLVLGPPLYNVSLVMSDTAGTCY
Output line: no binding
